System: Mast cell
measurement.notes: Induction of Wistar rat peritoneal mast cell degradation assessed as concanavalin A-induced histamine release after 15 mins fluorometric assay
Assay type: functional, cell-based
setup.conditions: 0.25 h
observable: EC50 (µM)

Worked cases, answers included:
CCCCCCCCCCCCCCCCCC(=O)OC[C@H](COP(=O)(O)OC[C@H](N)C(=O)O)OC ... 2
CCCCCCCCCCCCCCCCCC(=O)OCCCOP(=O)(O)OC[C@H](N)C(=O)O ... 0.5
CCCCCCCCCCCCCCCCCC(=O)OC[C@@H](O)COP(=O)(O)OC[C@H](N)C(=O)O ... 0.4
CCCCCCCCCCCCCCCC(=O)OCCCOP(=O)(O)O[C@H](C)[C@H](N)C(=O)O ... 0.06
CCCCCCCCCCCCCCCCCC(=O)N(C)C[C@@H](O)COP(=O)(O)OC[C@H](N)C(=O)O ... 10

[I] CCCCCCCCCCCCCCCC(=O)OC[C@@H](O)COP(=O)(O)O[C@H](C)[C@H](N)C(=O)O
[II] CCCCCCCCCCCCCCCCCC(=O)OC[C@@H](COP(=O)(O)OC[C@H](N)C(=O)O)OC
[ask] Between these two entries, I and II , state which has the higher EC50. Lab note: record the label of whichever item you select.
[reply] II
(II: 5 µM, I: 0.04 µM)
